Exercise: for every item that follows, state its recorded shrunken log2 fold change.
test system: Escherichia coli TOP10; experiment: shrunken log2 fold change of peptide-encoding DNA abundance (4.5 h post-induction vs induction); higher = less antimicrobial activity (less host growth inhibition); settings: time post-induction: 4.5 h; library: site-saturation at positions 5, 18, 19, 20;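 also: peptides expressed intracellularly from a pBAD plasmid library in pooled LB shake-flask culture, induced with 0.3% L-arabinose, DNA abundance read by NGS, three biological replicates, DESeq2 with apeglm shrinkage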
Simply state the number, no unit and no words.

Challenge: // returns reported shrunken log2 fold change for input `RRIRVRPPRLPRPRPRPEFCPRP`
Response given: 0.267

Challenge: // returns reported shrunken log2 fold change for input `RRIRCRPPRLPRPRPRPSCQPRP`
Response given: -0.375

Challenge: // returns reported shrunken log2 fold change for input `RRIRSRPPRLPRPRPRPAKAPRP`
Response given: 0.000841

Challenge: // returns reported shrunken log2 fold change for input `RRIRYRPPRLPRPRPRPPANPRP`
Response given: 0.169

Challenge: // returns reported shrunken log2 fold change for input `RRIRARPPRLPRPRPRPTHNPRP`
Response given: 0.523

Challenge: // returns reported shrunken log2 fold change for input `RRIRHRPPRLPRPRPRPYIDPRP`
Response given: -0.0149

Challenge: // returns reported shrunken log2 fold change for input `RRIRERPPRLPRPRPRPTDCPRP`
Response given: -0.399

Challenge: // returns reported shrunken log2 fold change for input `RRIRGRPPRLPRPRPRPAFKPRP`
Response given: 0.177

Challenge: // returns reported shrunken log2 fold change for input `RRIRQRPPRLPRPRPRPYWPPRP`
Response given: -0.11

Challenge: // returns reported shrunken log2 fold change for input `RRIRLRPPRLPRPRPRPCDSPRP`
Response given: -0.165

Challenge: // returns reported shrunken log2 fold change for input `RRIRNRPPRLPRPRPRPILEPRP`
Response given: 0.109

Challenge: // returns reported shrunken log2 fold change for input `RRIRPRPPRLPRPRPRPDTNPRP`
Response given: -0.239

Challenge: // returns reported shrunken log2 fold change for input `RRIRGRPPRLPRPRPRPAMGPRP`
Response given: 0.541

Challenge: // returns reported shrunken log2 fold change for input `RRIRVRPPRLPRPRPRPIRTPRP`
Response given: 0.782

Challenge: // returns reported shrunken log2 fold change for input `RRIRVRPPRLPRPRPRPECRPRP`
Response given: 0.238
